Taken from ChEMBL document CHEMBL4665801.

testMethodNotes: Cmax in CD-1 mouse at 10 mg/kg, iv and measured up to 24 hrs by LC/MS-MS analysis
Format: ADME, organism-based
Set-up: route intravenous, dose 10 mg/kg, time <=24
reportedConditions: in vivo
readout: Cmax (ng/mL)

Cc1ccc(C#Cc2cccc(-c3nn(-c4nc(C(=O)O)cs4)c(CC4CC4)c3Cc3ccc(S(N)(=O)=O)c(F)c3)c2)o1 4570
Cc1ccc(C#Cc2cccc(-c3nn(-c4nc(C(=O)O)cs4)c(CC4CC4)c3Cc3ccc(S(N)(=O)=O)c(F)c3)c2)s1 33800

[a] NS(=O)(=O)c1ccc(Cc2c(-c3ccc(F)c(/C=C/C4CCCC4)c3)nn(-c3nc(C(=O)O)cs3)c2CC2CC2)cc1F
[b] Cc1ccc(C#Cc2cc(-c3nn(-c4nc(C(=O)O)cs4)c(CCC4CC4)c3Cc3ccc(S(N)(=O)=O)c(F)c3)ccc2F)s1
IN: For the two items a and b , which reports the higher Cmax value? // output: label of the selected item
OUT: b

====

measuredTarget: L-lactate dehydrogenase B chain (Homo sapiens)
testMethodNotes: Inhibition of recombinant human LDHB using sodium pyruvate as substrate preincubated for 5 mins followed by diaphorase/resazurin addition and measured after 20 mins by fluorescence based assay
Active and inactive are the calls of the source. The rule behind the calls is not given here.
readout: inhibition

Cc1cc(C#Cc2cccc(-c3nn(-c4nc(C(=O)O)cs4)c(CC4CC4)c3Cc3ccc(S(N)(=O)=O)c(F)c3)c2)c(C)s1 Active
NS(=O)(=O)c1ccc(Cc2c(-c3ccc(F)c(C#CC(F)(F)F)c3)nn(-c3nc(C(=O)O)cs3)c2CC2CC2)cc1F Active
CC(C)(C)/C=C/c1cc(-c2nn(-c3nc(C(=O)O)cs3)c(CC3CC3)c2Cc2ccc(S(N)(=O)=O)c(F)c2)ccc1F Active
Cc1ccc(/C=C/c2cccc(-c3nn(-c4nc(C(=O)O)cs4)c(CC4CC4)c3Cc3ccc(S(N)(=O)=O)c(F)c3)c2)s1 Active

====

The entries below come with measured half-life values attached.
testMethodNotes: Half life in rat liver cytoplasm
Type: ADME, subcellular

Cc1ccc(C#Cc2cc(-c3nn(-c4nc(C(=O)O)cs4)c(CC4CC4)c3Cc3ccc(S(N)(=O)=O)c(F)c3)ccc2F)s1 > 2 h

Now for a further compound.
IN: // Input: Cc1ccc(C#Cc2cccc(-c3nn(-c4nc(C(=O)O)cs4)c(CC4CC4)c3Cc3ccc(S(N)(=O)=O)c(F)c3)c2)s1 . Output its half-life only.
OUT: > 2 h

====

measuredTarget: L-lactate dehydrogenase A chain (Homo sapiens)
testMethodNotes: Inhibition of recombinant human LDHA using sodium pyruvate as substrate preincubated for 5 mins followed by diaphorase/resazurin addition and measured after 20 mins by fluorescence based assay
readout: IC50 (nM)

Worked set:
compound	IC50 (nM)
NS(=O)(=O)c1ccc(Cc2c(-c3ccc(F)c(C#CCC4CCCO4)c3)nn(-c3nc(C(=O)O)cs3)c2CC2CC2)cc1F (centres undefined)	9
CC(C)c1ccc(C#Cc2cccc(-c3nn(-c4nc(C(=O)O)cs4)c(CC4CC4)c3Cc3ccc(S(N)(=O)=O)c(F)c3)c2)s1	385

[I] NS(=O)(=O)c1ccc(Cc2c(-c3ccc(F)c(C#CC(F)(F)F)c3)nn(-c3nc(C(=O)O)cs3)c2CC2CC2)cc1F
[II] CC(C)CC#Cc1cc(-c2nn(-c3nc(C(=O)O)cs3)c(CC3CC3)c2Cc2ccc(S(N)(=O)=O)c(F)c2)ccc1F
IN: Identify the item whose IC50 is the smaller number: I or II Give the label of your selection.
OUT: II
